Measured MIC against K. pneumonia of individual entries
System: Klebsiella pneumonia
Experiment: MIC against Gram-negative bacteria: Klebsiella pneumonia
Type: cell-based
Settings: Klebsiella pneumonia; 5×10^5 CFU/mL; 10 h cultivation at 37° C.
Please respond with the number in µg/mL and leave the unit unwritten.

Would you please look over these solved cases?
The substance PRT1436 (AERNCRNPELNPCSVNAQCIEERQGDVTCVCGVGWAGDGYICG; listed as Homo sapiens) , tested on Klebsiella pneumonia, showed MIC against K. pneumonia of 50

The substance PRT1351 (TAVCQSPCLNGGKCVRPNRCHCLSSWTGHNCS; listed as Homo sapiens) , tested on Klebsiella pneumonia, showed MIC against K. pneumonia of 25

The substance PRT1352 (SEPECPGNCHLRGRCIDGQCICDDGFTGEDCS; listed as Homo sapiens) , tested on Klebsiella pneumonia, showed MIC against K. pneumonia of 12.5

The substance PRT1464 (CNCDKTGTINGSLLCNKSTGQCPCKLGVTGLRCNQCEPHRYNLTIDNFQHCQM; listed as Homo sapiens) , tested on Klebsiella pneumonia, showed MIC against K. pneumonia of 12.5

Others:
The substance PRT1414 (EVDCMDPTCSGRGVCVRGECHCSVGWGGTNCE; listed as Homo sapiens) , tested on Klebsiella pneumonia, showed MIC against K. pneumonia of 12.5

The substance PRT1483 (DIDECVTSSCEGHCVNTEGGFVCECGPGMQLSADRHSCQ; listed as Homo sapiens) , tested on Klebsiella pneumonia, showed MIC against K. pneumonia of 25

The substance PRT1362 (GKPTCPHACHTQGRCEEGQCVCDEGFAGVDCS; listed as Homo sapiens) , tested on Klebsiella pneumonia, showed MIC against K. pneumonia of 25

The substance PRT1411 (SVDNCPSNCYGNGDCISGTCHCFLGFLGPDCG; listed as Homo sapiens) , tested on Klebsiella pneumonia, showed MIC against K. pneumonia of 25

The substance PRT1458 (CNCHLSGALNETCHLVTGQCFCKQFVTGSKCDACVPSASHLDVNNLLGCSK; listed as Homo sapiens) , tested on Klebsiella pneumonia, showed MIC against K. pneumonia of 12.5

The substance PRT1399 (ARVQCPDQCSGHGTYLPDTGLCSCDPNWMGPDCS; listed as Homo sapiens) , tested on Klebsiella pneumonia, showed MIC against K. pneumonia of 12.5

* * *

Test system: Proteus mirabilis
Experiment: MIC against Gram-negative bacteria: Proteus mirabilis
Format: cell-based
Settings: 10 h cultivation at 37° C., 5×10^5 CFU/mL, two-fold serial dilution
Observed Property: MIC P. mirabilis (µg/mL)
Please respond with the number in µg/mL and leave the unit unwritten.

Quick note, MIC P. mirabilis for PRT1135 (NLDDCASRPCQRGARCRDRVHDFDCLCPSGYGGKTCE; listed as Homo sapiens) landed at 50

Quick note, MIC P. mirabilis for PRT1123 (QLTGCQGHTCPLAATCIPIFESGVHSYVCHCPPGTHGPFCG; listed as Homo sapiens) landed at 50

Quick note, MIC P. mirabilis for PRT1104 (EVDECASDPCKNEATCLNEIGRYTCICPHNYSGVNCE; listed as Homo sapiens) landed at 25

Quick note, MIC P. mirabilis for PRT1133 (KAGPCEQAGSPCRNGGQCQDDQGFALNFTCRCLVGFVGARCE; listed as Homo sapiens) landed at 12.5

Quick note, MIC P. mirabilis for PRT1069 (VTNPCDRKKCEWLCLLSPSGPVCTCPNGKRLDNGTCV; listed as Homo sapiens) landed at 12.5

Others:
Quick note, MIC P. mirabilis for PRT1122 (DVDECLSDPCLHGGTCSDTVAGYICRCPETWGGRDCS; listed as Homo sapiens) landed at 12.5

* * *

Test system: Proteus mirabilis
Assay: MIC against Gram-negative bacteria: Proteus mirabilis
Assay type: cell-based
Conditions: Proteus mirabilis; 96-well plate, 5×10^5 CFU/mL, 37° C., 10 h
Measured MIC against P. mirabilis of individual entries
Please respond with the number in µg/mL and leave the unit unwritten.

The substance PRT1303 (HGLCRSVEKDSVVCECRPGWTGPLCD; listed as Homo sapiens) , tested on Proteus mirabilis, showed MIC against P. mirabilis of 25

The substance PRT1260 (DINECLVNNGGCDHFCRNTVGSFECGCRKGYKLLTDERTCQ; listed as Homo sapiens) , tested on Proteus mirabilis, showed MIC against P. mirabilis of 12.5

Attention now shifts to the item below.
The substance PRT1229 (DINECETGLAKCKYKAYCRNKVGGYICSCLVKYTLFNFLAGIIDYDHPDCY; listed as Homo sapiens) , tested on Proteus mirabilis, showed MIC against P. mirabilis of 12.5

* * *

Measured MIC (μg/mL) K. pneumonia of individual entries
Tested on: Klebsiella pneumonia
Test: MIC against Gram-negative bacteria: Klebsiella pneumonia
Assay type: cell-based
Conditions: K. pneumonia; 10 h cultivation at 37° C.; 5×10^5 CFU/mL
Please respond with the number in µg/mL and leave the unit unwritten.

Quick note, MIC (μg/mL) K. pneumonia for PRT821 (DVDECRTHNGGCQHRCVNTPGSYLCECKPGFRLHTDSRTCL; listed as Homo sapiens) landed at 25

Others:
Quick note, MIC (μg/mL) K. pneumonia for PRT258 (CSHPDRGGCSENAECVPGSLGTHHCTCHKGWSGDGRVC; listed as Homo sapiens) landed at 12.5

Quick note, MIC (μg/mL) K. pneumonia for PRT804 (HGAHCELRCPCQNGGTCHHITGECACPPGWTGAVCA; listed as Homo sapiens) landed at 50

* * *

System: Citrobacter diversus
Test: MIC against Gram-negative bacteria: Citrobacter diversus
Format: cell-based
Details: C. diversus; 10 h cultivation at 37° C.
Measured MIC of individual entries

Quick note, MIC for PRT903 (DINECASDPCRNGANCTDCVDSYTCTCPAGFSGIHCE; listed as Homo sapiens) landed at 50 µg/mL

Others:
Quick note, MIC for PRT916 (QADPCASNPCANGGQCLPFEASYICHCPPSFHGPTCR; listed as Homo sapiens) landed at 25 µg/mL

Quick note, MIC for PRT991 (RGLLCGSFPEPCANGGTCLSLSLGQGTCQCAPGFLGETCQ; listed as Homo sapiens) landed at 50 µg/mL

Quick note, MIC for PRT899 (NINECASNPCLNQGTCIDDVAGYKCNCLLPYTGATCE; listed as Homo sapiens) landed at 50 µg/mL

Quick note, MIC for PRT996 (DIDECRSSPCANGGQCQDQPGAFHCKCLPGFEGPRCQ; listed as Homo sapiens) landed at 12.5 µg/mL

Quick note, MIC for PRT949 (FVDVCPQMPCLNGGTCAVASNMPDGFICRCPPGFSGARCQ; listed as Homo sapiens) landed at 12.5 µg/mL

* * *

System: Proteus mirabilis
Assay: MIC against Gram-negative bacteria: Proteus mirabilis
Type: cell-based
Settings: Proteus mirabilis; 5×10^5 CFU/mL; 10 h cultivation at 37° C.
Observed Property: MIC against P. mirabilis (µg/mL)
Please respond with the number in µg/mL and leave the unit unwritten.

Would you please look over these solved cases?
Quick note, MIC against P. mirabilis for PRT1359 (SREICPVPCSEEHGTCVDGLCVCHDGFAGDDCN; listed as Homo sapiens) landed at 25

Quick note, MIC against P. mirabilis for PRT1441 (EVDECSWPDHGGCEHRCVNTLGSYKCACDPGYELAADKKMCE; listed as Homo sapiens) landed at 12.5

Others:
Quick note, MIC against P. mirabilis for PRT1386 (GSRACPRDCRGRGRCENGVCVCNAGYSGEDC; listed as Homo sapiens) landed at 12.5

Quick note, MIC against P. mirabilis for PRT1437 (DVNECADGAHPPCHASARCRNTKGGFQCLCADPYELGDDGRTCV; listed as Homo sapiens) landed at 25

* * *

Tested on: Enterobacter cloacae
Assay: MIC against Gram-negative bacteria: Enterobacter cloacae
Type: cell-based
Conditions: E. cloacae; 10 h cultivation at 37° C.
Observed Property: MIC (mg/L)
Please respond with the number in mg/L and leave the unit unwritten.

Would you please look over these solved cases?
Quick note, MIC for PRT962 (NVDDCSPDPCHHGRCVDGIASFSCACAPGYTGTRCE; listed as Homo sapiens) landed at 25

Quick note, MIC for PRT1001 (EMTACHSGPCLNGGSCNPSPGGYYCTCPPSHTGPQCQ; listed as Homo sapiens) landed at 25

Quick note, MIC for PRT1023 (PINYCETGLHNCDIPQRAQCIYTGGSSYTCSCLPGFSGDGQACQ; listed as Homo sapiens) landed at 25

Others:
Quick note, MIC for PRT1000 (ELGGCISAPCAHGGTCYPQPSGYNCTCPTGYTGPTCS; listed as Homo sapiens) landed at 12.5

Quick note, MIC for PRT1040 (AAHPCVRAPCAHGGSCRPRKEGYDCDCPLGFEGLHCQ; listed as Homo sapiens) landed at 50

Quick note, MIC for PRT1006 (PLSSCQKAALSQGIDVSSLCHNGGLCVDSGPSYFCHCPPGFQGSLCQ; listed as Homo sapiens) landed at 12.5

Quick note, MIC for PRT955 (DVDECLLQPNACQNGGTCANRNGGYGCVCVNGWSGDDCS; listed as Homo sapiens) landed at 25

Quick note, MIC for PRT928 (NIDNCDPDPCHHGQCQDGIDSYTCICNPGYMGAICS; listed as Homo sapiens) landed at 25
